# assayed_target: recombinant thrombin
# measurement_protocol: selectivity inhibition assay
*: point of attachment. kbt‑6‑CONH‑4‑piperidine = ketobenzothiazole-6-CONH-4-piperidine (Kbt-4-piperidinylamide), O=C(NC1CCNCC1)c1ccc2nc(*)sc2c1; kbt‑6‑CONH‑Bn = ketobenzothiazole-6-CONH-benzyl (Kbt-benzylamide), O=C(NCc1ccccc1)c1ccc2nc(*)sc2c1; kbt‑6‑COOH = ketobenzothiazole-6-COOH, O=C(O)c1ccc2nc(*)sc2c1; kbt = C-terminal ketobenzothiazole, c1ccc2sc(*)nc2c1; Kbt = ketobenzothiazole, c1ccc2sc(*)nc2c1; Fmoc = O=C(OCC1c2ccccc2-c2ccccc21)*
Assign labels as follows, please: T for Ki below 2 µM; F for Ki equal to or exceeding 2 µM.

binder: Ac-KRLR-Kbt (not fully specified) [Ac-KRLR(SEQ ID NO: 8)-Kbt-5-COOH]
class: T
--
binder: Fmoc-Leu-Arg-kbt [Fmoc-LR-kbt]
class: T
--
binder: Ac-KRLR-{Kbt-Benzyl‑3‑COOMe} [Ac-KRLR(SEQ ID NO: 8)-kbt-Benzyl-3-COOMe]
class: T
--
binder: Ac-KRLR-{Kbt-Benzyl‑4‑COOMe} [Ac-KRLR(SEQ ID NO: 8)-kbt-Benzyl-4-COOMe]
class: T
--
binder: Ac-SKLR-kbt (SMILES CC(=O)N[C@@H](CO)C(=O)N[C@@H](CCCCN)C(=O)N[C@@H](CC(C)C)C(=O)N[C@@H](CCCNC(=N)N)C(=O)c1nc2ccccc2s1) [Ac-SKLR(SEQ ID NO: 10)-Kbt]
class: F
--
binder: Ac-SKLR-{kbt‑6‑COOH} (SMILES CC(=O)N[C@@H](CO)C(=O)N[C@@H](CCCCN)C(=O)N[C@@H](CC(C)C)C(=O)N[C@@H](CCCNC(=N)N)C(=O)c1nc2ccc(C(=O)O)cc2s1) [Ac-SKLR(SEQ ID NO: 10)-Kbt-COOH]
class: F
--
binder: H-WRLR-kbt (SMILES CC(C)C[C@H](NC(=O)[C@H](CCCNC(=N)N)NC(=O)[C@@H](N)Cc1c[nH]c2ccccc12)C(=O)N[C@@H](CCCNC(=N)N)C(=O)c1nc2ccccc2s1) [H-WRLR(SEQ ID NO: 9)-Kbt]
class: F
--
binder: Ac-KRLR-Kbt (SMILES CC(=O)N[C@@H](CCCCN)C(=O)N[C@@H](CCCNC(=N)N)C(=O)N[C@@H](CC(C)C)C(=O)N[C@@H](CCCNC(=N)N)C(=O)c1nc2ccccc2s1) [Ac-KRLR(SEQ ID NO: 8)-Kbt]
class: F
--
binder: Ac-SKLR-{kbt‑6‑CONH‑4‑piperidine} [Ac-SKLR(SEQ ID NO: 10)-Kbt-4-piperidinylamide]
class: F
--
binder: Ac-SKLR-{kbt‑6‑CONH‑Bn} [Ac-SKLR(SEQ ID NO: 10)-Kbt-benzylamide]
class: F
